# TGT: protein tyrosine phosphatase 1B (PTP1B) (Homo sapiens)
# Construct: Recombinant human GST-PTP1B
# Sequence (P18031 1-435): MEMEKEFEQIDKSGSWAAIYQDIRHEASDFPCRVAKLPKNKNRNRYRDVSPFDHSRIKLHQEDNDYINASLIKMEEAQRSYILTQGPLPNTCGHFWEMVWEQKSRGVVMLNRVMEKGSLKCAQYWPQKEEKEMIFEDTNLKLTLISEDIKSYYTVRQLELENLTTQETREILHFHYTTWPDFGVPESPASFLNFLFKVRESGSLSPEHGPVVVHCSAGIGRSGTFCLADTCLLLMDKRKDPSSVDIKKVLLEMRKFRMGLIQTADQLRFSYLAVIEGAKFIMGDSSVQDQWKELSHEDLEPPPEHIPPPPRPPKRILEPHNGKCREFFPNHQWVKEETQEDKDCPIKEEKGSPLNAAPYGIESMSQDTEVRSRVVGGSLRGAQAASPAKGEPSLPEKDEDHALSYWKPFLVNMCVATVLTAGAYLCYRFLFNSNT
# TEST NAME: pNPP hydrolysis assay with purified GST-PTP1B, absorbance at […] nm
MEASURED ATTRIBUTE: IC50 (nM)
A number alone suffices; assume nM.

Record lookup: for protein tyrosine phosphatase 1B (PTP1B) (Homo sapiens), what IC50 belongs to C=C1[C@H](O)[C@H](O)C[C@]2(C)[C@H]3CC=C4[C@@H]5CC(C)(C)CC[C@]5(C(=O)O)CC[C@@]4(C)[C@]3(C)CC[C@@H]12 [compound 4] ?
3980

Record lookup: for protein tyrosine phosphatase 1B (PTP1B) (Homo sapiens), what IC50 belongs to C[C@H]1[C@H](C)CC[C@]2(C(=O)O)CC[C@]3(C)C(=CC[C@@H]4[C@@]5(C)C[C@@H](O)[C@H](O)C(C)(C)[C@@H]5CC[C@]43C)[C@H]12 [compound 3, corosolic acid] ?
690
